Target: T1, huMICA*008 alpha 3-his (human)
T1 construct: whole construct entry: GS, alpha 3 domain (Thr204-Ser297), GNS, His8; also the construct of the FPOP experiment; also called MICA008.His; MICA*008 alpha3 construct
T1 chain: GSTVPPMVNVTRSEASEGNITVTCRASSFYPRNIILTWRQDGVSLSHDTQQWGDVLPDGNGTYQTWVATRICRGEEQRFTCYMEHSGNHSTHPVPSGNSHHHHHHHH
Experiment: SPR, Biacore 8K, antibody on Protein A chip

>  <BINDER>
1D5v27 (antibody, IgG1, V domains shown, humanized variant of 1D5) VH: EIQLVQSGAEVKKPGASVKVSCKASGYAFTSQNIYWVRQAPGQGLEWIGYIEPYNVVPAYNPKFKGRATLTVDKSTSTAYLELSSLRSEDTAVYYCARSGSSNFDYWGQGTLVTVSS VL: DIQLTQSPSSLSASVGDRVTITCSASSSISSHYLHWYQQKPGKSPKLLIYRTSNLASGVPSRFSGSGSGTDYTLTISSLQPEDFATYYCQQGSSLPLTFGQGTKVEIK

>  <UOM>
nM

>  <Kd>
1.44

$$$$
>  <BINDER>
1D5v9 (antibody, IgG1, V domains shown, humanized variant of 1D5) VH: EIQLVQSGAEVKKPGASVKVSCKASGYAFTSQNIYWVRQAPGQGLEWIGYIEPYNVVPMYNPKFKGRATLTVDKSTSTAYMELRSLRSDDTAVYYCARSGSSNFDYWGQGTLVTVSS VL: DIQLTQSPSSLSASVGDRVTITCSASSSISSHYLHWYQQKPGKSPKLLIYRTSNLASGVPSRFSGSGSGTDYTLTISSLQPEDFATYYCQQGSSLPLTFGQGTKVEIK

>  <UOM>
nM

>  <Kd>
0.87

$$$$
